# system: T1, Cynomolgus monkey BCMA (cynomolgus monkey)
# T1 construct: Soluble analyte in SPR; also called cyBCMA; Cyno BCMA
# experimental.protocol: SPR, IgG immobilised, cyno BCMA analyte
observable: Kd (nM)
Write down the numeric answer in nM and omit the unit.

[ask] Sample C01_Rd4_0.6nM_C06 (antibody, V domains shown, IgG) VH: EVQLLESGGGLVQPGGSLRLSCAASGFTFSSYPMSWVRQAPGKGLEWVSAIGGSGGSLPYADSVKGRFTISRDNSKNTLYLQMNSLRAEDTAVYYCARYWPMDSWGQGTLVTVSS VL: EIVLTQSPGTLSLSPGERATLSCRASEAVPSTYLAWYQQKPGQAPRLLIYDASSRAPGIPDRFSGSGSGTDFTLTISRLEPEDFAVYYCQQYSAFPLTFGQGTKVEIK — what was its Kd?
[reply] 1.95
